Target: Lethal(3)malignant brain tumor-like protein 1 (Homo sapiens) (UniProt Q9Y468)
Sequence (Q9Y468 whole entry, looked up): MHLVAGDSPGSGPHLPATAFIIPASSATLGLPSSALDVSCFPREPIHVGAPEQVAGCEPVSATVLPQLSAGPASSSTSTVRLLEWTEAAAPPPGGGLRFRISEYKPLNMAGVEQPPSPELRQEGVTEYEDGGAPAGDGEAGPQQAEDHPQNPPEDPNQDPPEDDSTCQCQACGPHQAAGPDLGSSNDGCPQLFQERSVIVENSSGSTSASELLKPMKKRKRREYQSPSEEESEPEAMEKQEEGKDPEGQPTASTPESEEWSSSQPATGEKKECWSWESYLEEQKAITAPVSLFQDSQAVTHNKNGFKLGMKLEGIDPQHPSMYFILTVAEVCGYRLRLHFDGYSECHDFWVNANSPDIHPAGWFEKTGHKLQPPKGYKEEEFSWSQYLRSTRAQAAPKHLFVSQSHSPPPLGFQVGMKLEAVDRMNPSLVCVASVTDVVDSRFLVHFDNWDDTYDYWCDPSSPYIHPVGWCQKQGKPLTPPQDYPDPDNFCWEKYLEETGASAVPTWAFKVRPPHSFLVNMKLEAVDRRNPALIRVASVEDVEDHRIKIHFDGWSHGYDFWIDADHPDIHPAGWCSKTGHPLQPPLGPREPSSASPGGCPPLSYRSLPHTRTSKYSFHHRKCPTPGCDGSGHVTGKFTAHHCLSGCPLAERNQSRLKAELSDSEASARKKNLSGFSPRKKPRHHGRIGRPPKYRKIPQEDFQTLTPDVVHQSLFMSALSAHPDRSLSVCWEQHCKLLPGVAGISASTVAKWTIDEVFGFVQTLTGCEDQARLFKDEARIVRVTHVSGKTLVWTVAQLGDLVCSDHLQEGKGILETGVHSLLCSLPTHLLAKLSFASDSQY
Assay: qHTS Assay for the Inhibitors of L3MBTL1; further: nearly all actives have a fitted effect of over 60% in size; further: potency means the concentration at half of the fitted maximal effect
Conditions: AlphaScreen L3MBTL1–H3K9me1 peptide binding; series mostly up to 57.1 µM
In all, about 230,000 compounds went through this assay and about 1,500 (0.65%) were called active. Another 3% or so got no clear call; they are omitted. This is one part of a sample in which actives are shown more often than they occur.
METRIC: Potency

Recorded results for 10 molecules are shown here.
O=C(Nc1ccc(NC(=O)c2cccs2)cn1)c1ccco1	inactive
Oc1ccc2ccccc2c1N=Nc1nccs1	3.98 µM (active)
c1ccc(NCc2cccc3ccccc23)nc1	inactive
Cc1ccc(C2(C)NC(=O)N(CC(=O)N3CC(=O)Nc4ccccc43)C2=O)cc1 (configuration not stated)	inactive
CN(C)C(=O)CCc1ccc2c3c([nH]c2c1)[C@]1(C)[C@@H](C(=O)N2CCCCC2)C[C@H](CC(=O)NCCC2=CCCCC2)C(=O)N1CC3	inactive
C[C@H](NC(=O)c1nc[nH]c1C(=O)NCC(=O)OC(C)(C)C)c1ccccc1	inactive
CC(C)(C)OC(=O)NCCCCCNC(=O)c1[nH]cnc1C(=O)Nc1nccs1	28.2 µM (active)
Cc1ccccc1Nc1nc(N)nc(CSc2ccccc2)n1	inactive
CCOc1ccc(C(=O)Nc2ccncc2)cc1	inactive
CCCCn1c(N)c(N(CC(C)C)C(=O)CN(C)S(=O)(=O)c2ccc(F)cc2)c(=O)[nH]c1=O	inactive

Find the recorded Potency belonging to `Oc1ccc2ccccc2c1C=Nc1ccccc1` and report it. inactive

Find the recorded Potency belonging to `Cc1csc(=O)n1CC(=O)Nc1ccc(S(C)(=O)=O)cc1` and report it. inactive

###

Molecular target: Lethal(3)malignant brain tumor-like protein 1 (Homo sapiens) (UniProt Q9Y468)
Assay: qHTS Assay for the Inhibitors of L3MBTL1; further: nearly all actives have a fitted effect of over 60% in size; on activity, negative = inhibition: on the % scale 0 is the no-effect control and ±100 the full control effect
Conditions: AlphaScreen L3MBTL1–H3K9me1 peptide binding; series mostly up to 57.1 µM
The campaign covered roughly 230,000 compounds. About 1,500 (0.65%) were called active. Not shown: some 3% with an inconclusive outcome. For the sample, actives were picked, then their nearest neighbours and some compounds at random.
activity, negative = inhibition for assorted molecules

Recorded results for 3 molecules are shown here.
Cc1cc([N+](=O)[O-])ccc1NC(=O)c1ccc(NC(=O)C(C)C)cc1	-0.242% [at 11.4 µM] (inactive)
CCOc1cccc(NC(=O)CC#N)c1	-26.1% [at 11.4 µM] (inactive)
COc1ccc(Cc2nnc(NC(=O)c3ccc(OC)cc3OC)s2)cc1	1.66% [at 2.29 µM] (inactive)

// below: activity, negative = inhibition requested for another molecule
Find the recorded activity, negative = inhibition belonging to CCCCN1C(=O)C(C)=C(C)C1OCCc1ccc(OC)c(OC)c1 (centres undefined) and report it. 0.955% [at 2.29 µM] (inactive)

###

Target: Lethal(3)malignant brain tumor-like protein 1 (Homo sapiens) (UniProt Q9Y468)
Experiment: qHTS Assay for the Inhibitors of L3MBTL1; further: nearly all actives have a fitted effect of over 60% in size; further: potency means the concentration at half of the fitted maximal effect
Conditions: AlphaScreen L3MBTL1–H3K9me1 peptide binding; series mostly up to 57.1 µM
Description: The histone code is comprised of many post-translational modifications that occur mainly in histone tail peptides. The identity and location of these marks are read by a variety of histone binding proteins that are emerging as important regulators of cellular differentiation and development and are increasingly being implicated in numerous disease states. […]
About 1,500 (0.65%) of roughly 230,000 compounds were called active. About 3% were inconclusive and are not listed. What follows is part of a selection rich in actives, with near analogues and random picks from the rest.
METRIC: Potency

COc1ccc(-c2nnc(SCC(=O)c3cccs3)o2)c(OC)c1	inactive
COc1ccc(Cc2nnc(NC(=O)Cc3cccs3)s2)cc1	4.47 µM (active)
Cc1occc1C(=O)Nc1cccc(S(=O)(=O)N2CCOCC2)c1	inactive
Oc1c(C(c2ccccn2)N2CCOCC2)ccc2cccnc12 (stereo unspecified)	8.91 µM (active)
CCOc1cc(/C=N/O)cc(Br)c1OC	inactive

// below: Potency requested for another compound
Find the recorded Potency belonging to `CCOc1cc(N2CCOCC2)c(OCC)cc1NC(=O)COc1cccc2cccnc12` and report it. inactive

###

Target: Lethal(3)malignant brain tumor-like protein 1 (Homo sapiens)
Test: qHTS Assay for the Inhibitors of L3MBTL1; further: nearly all actives have a fitted effect of over 60% in size
Conditions: AlphaScreen L3MBTL1–H3K9me1 peptide binding; series mostly up to 57.1 µM
Description: The histone code is comprised of many post-translational modifications that occur mainly in histone tail peptides. The identity and location of these marks are read by a variety of histone binding proteins that are emerging as important regulators of cellular differentiation and development and are increasingly being implicated in numerous disease states. […]
Screen size: about 230,000 compounds; about 1,500 (0.65%) were called active. Not shown: some 3% with an inconclusive outcome. Calls follow the shape of the dose curve; as a rule, active = well fitted inhibition curve with a large enough effect; inconclusive = small, poorly fitted or top-dose-only effect; inactive = no such curve, though single readings can be large or run the other way. Only a selection was taken, and actives are over-represented in it overall.
// allowed return values: True for active, False for inactive

Worked cases, answers included:
Cc1ccccc1NC(=S)NC(=O)Cc1ccc(Cl)cc1	False
COc1cc(OC)cc(C(=O)OCC(=O)Nc2ccc(F)cc2F)c1	False
Cc1ccc(S(=O)(=O)NCCC(=O)OCC(=O)N(C)c2ccccc2)cc1	False
Oc1ccc(N=Cc2sc3ccccc3c2Cl)cc1	True
O=C(N/N=C/c1c(Cl)[nH]c2ccccc12)c1sc2ccccc2c1Cl	False

# outcome recorded in this test, key = `COc1ccc2c(C(=O)c3ccc(C)cc3)n(CCC(N)=O)[n+]([O-])c2c1` False

# outcome recorded in this test, key = `Cc1ccc(-c2nnc(-c3ccc(NC(=O)c4cccs4)cc3)o2)cc1` False

# outcome recorded in this test, key = `COc1ccc(N=C(C)c2sc3ccccc3c2O)cc1` False

# outcome recorded in this test, key = `CC(=O)N(O)CCCCCNC(=O)CCC(=O)N(O)CCCCCNC(=O)CCC(=O)N(O)CCCCCNC(=O)CCC(=O)O` False

# outcome recorded in this test, key = `Cc1cc(C)cc(NS(=O)(=O)Cc2ccccc2)c1` False

# outcome recorded in this test, key = `Cc1ccc(S(=O)(=O)NC[C@H]2O[C@@H](n3cnc4c(N)ncnc43)[C@H](O)[C@@H]2O)s1` False

# outcome recorded in this test, key = COc1ccc2nc3n(c(=O)c2c1)-c1cc(C)ccc1C(=O)NC3Cc1ccc(O)cc1 (configuration not stated) False

# outcome recorded in this test, key = `CC(C)(C)NS(=O)(=O)NC(=O)C1=C(N2CCCC2)COC1=O` False

###

Target: Lethal(3)malignant brain tumor-like protein 1 (Homo sapiens) (UniProt Q9Y468)
Assay: qHTS Assay for the Inhibitors of L3MBTL1; further: nearly all actives have a fitted effect of over 60% in size
Details: AlphaScreen L3MBTL1–H3K9me1 peptide binding; series mostly up to 57.1 µM
About 1,500 (0.65%) of roughly 230,000 compounds were called active. Inconclusive results (about 3%) are left out. Calls come from the whole dose curve; as a rule, active = well fitted inhibition curve with a large enough effect; inconclusive = small, poorly fitted or top-dose-only effect; inactive = no such curve, though single readings can be large or run the other way. What follows is part of a selection rich in actives, with near analogues and random picks from the rest.
// allowed return values: active, inactive

Worked cases, answers included:
Cc1cc(=O)[nH]c(Nc2cccc(Br)c2)n1	inactive
Cc1nnc(SCC(=O)Nc2cccc(N)c2)n1-c1ccccc1	inactive
COc1ccc(C(=O)CSc2nnc(COc3ccccc3)n2Cc2ccco2)cc1	inactive

# outcome recorded in this test, key = `COc1cc2c(-c3ccc4c(c3)OCO4)c(-c3ccsc3)oc(=O)c2cc1OC` inactive

# outcome recorded in this test, key = COc1ccc(C(=O)COC(=O)C(O)c2ccccc2)c(OC)c1 (stereo not given) inactive

# outcome recorded in this test, key = `O=C1N/C(=C/c2cccn2-c2ccccc2)C(=O)N1c1cccc(Cl)c1` inactive

# outcome recorded in this test, key = `Cc1ccccc1NC(=O)CN1C(=O)N/C(=C\c2cccn2-c2cccc(C(=O)O)c2)C1=O` active

# outcome recorded in this test, key = CC(Sc1ccccc1F)C(=O)Nc1cccc(S(=O)(=O)N2CCOCC2)c1 (stereo not given) inactive

# outcome recorded in this test, key = `CCCn1c(C)cc(/C=C(\C#N)C(=O)OCC(=O)N(C)c2c(N)n(Cc3ccccc3)c(=O)[nH]c2=O)c1C` inactive

# outcome recorded in this test, key = `O=C(COC(=O)c1cccnc1Cl)NC12CC3CC(CC(C3)C1)C2` inactive

###

Biological target: Lethal(3)malignant brain tumor-like protein 1 (Homo sapiens) (UniProt Q9Y468)
Test: qHTS Assay for the Inhibitors of L3MBTL1; further: nearly all actives have a fitted effect of over 60% in size
Settings: AlphaScreen L3MBTL1–H3K9me1 peptide binding; series mostly up to 57.1 µM
Screen size: about 230,000 compounds; about 1,500 (0.65%) were called active. Another 3% or so got no clear call; they are omitted. The call rests on the fitted dose curve; in most records, active means well fitted inhibition curve with a large enough effect; inconclusive means small, poorly fitted or top-dose-only effect; inactive means no such curve, though single readings can be large or run the other way. This is one part of a sample in which actives are shown more often than they occur.
// allowed return values: active, inactive

Worked cases, answers included:
O=C(COc1coc(CN2CCN(c3ccccc3)CC2)cc1=O)N1CCc2ccccc21	inactive
O=S(=O)(c1ccccc1)N1CCC(c2ccccc2)CC1	inactive
Cc1occc1-c1nnc(SCC(=O)NC2(C#N)CCCC2)n1C	inactive

Okay, next one:
# outcome recorded in this test, key = `O=C(Nc1nnc(SCc2ccccc2)s1)c1ccco1` inactive
